// data source = patent US12435091B2

Assay name: Log D at pH 7.4
Assay type: physicochemical
Observable: logD

Compound: FC(F)(F)CNc1ccc2ncc(-c3ccc4[nH]ncc4c3)n2n1
Observable: logD
Result: > 4.15
--
Compound: CCCN(C)c1ccc2ncc(-c3ccc4cn[nH]c4c3)n2n1
Observable: logD
Result: > 4.18
--
Compound: Cc1n[nH]c2cc(-c3cnc4ccc(N(C)C5CCOCC5)nn34)ccc12
Observable: logD
Result: > 4.35
--
Compound: CCCN(c1ccc2ncc(-c3ccc4cn[nH]c4c3)n2n1)C1CCOCC1
Observable: logD
Result: 0.4
--
Compound: CN(c1ccc2ncc(-c3ccc4cn[nH]c4c3)n2n1)C1CCOCC1
Observable: logD
Result: 3.1
--
Compound: CCCN(C)c1ccc2ncc(-c3ccc4cnn(C)c4c3)n2n1
Observable: logD
Result: > 4.55
--
Compound: CCCN(C)c1ccc2ncc(-c3ccc4[nH]nc(C(C)=O)c4c3)n2n1
Observable: logD
Result: > 4.48
--
Compound: CN(c1ccc2ncc(-c3ccc4cn[nH]c4c3)n2n1)C1CCC(F)(F)CC1
Observable: logD
Result: 0.9

Query string: May I ask what logD has been recorded for CC1(C)CC(Nc2ccc3ncc(-c4ccc5[nH]ncc5c4)n3n2)CCO1 (stereo not shown) ?
Result string: > 4.06

Query string: State the recorded logD for this entry: Cn1ncc2ccc(-c3cnc4ccc(NC5CCOCC5)nn34)cc21
Result string: 2.9

Query string: Request the reported logD associated with FC1(F)CCC(Nc2ccc3ncc(-c4ccc5[nH]ncc5c4)n3n2)CC1
Result string: > 4.16

Query string: Please look up its logD: CN(c1ccc2ncc(-c3ccc4cc[nH]c4c3)n2n1)C1CCOCC1
Result string: 2.2

Query string: Entry under review: FC1(F)CCC(Nc2ccc3ncc(-c4ccc5cn[nH]c5c4)n3n2)CC1 . Reported logD?
Result string: > 4.23
